B1: CPEB3 Ribozyme (parent)
chain: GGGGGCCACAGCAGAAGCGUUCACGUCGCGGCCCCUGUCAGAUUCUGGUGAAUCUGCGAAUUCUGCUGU

- Variants of: B1
- Test name: self-cleavage, relative activity (ratio to wild type); higher = more cleavage; co-transcriptional
Would you please tag the item satisfied when its self-cleavage is 0.4 or above, and not satisfied when it is below?

Does the reported self-cleavage for G19C A51G fall at or above the 0.4 mark?
not satisfied

Dear colleague, could you confirm whether A60U U64G has self-cleavage at or above 0.4?
not satisfied

Does A8U G11C have a reported self-cleavage of at least 0.4?
satisfied

Hello, I need to know if G14C U55G has measured self-cleavage not below 0.4. Thanks!
not satisfied

API: above_or_equal(metric=self-cleavage, cutoff=0.4) for item A42U C57G
not satisfied

Exam item: decide whether the reported self-cleavage for A13G C27A is at least 0.4.
satisfied

Given the entry C9G , answer whether its self-cleavage meets or surpasses 0.4.
satisfied

Record C27A G31A ; criterion: self-cleavage no lower than 0.4. Met?
not satisfied

Given the entry G19C U64G , answer whether its self-cleavage meets or surpasses 0.4.
not satisfied

State whether the measured self-cleavage reaches 0.4, counting equality as reaching it, for G1A C54U
not satisfied

Confirm if self-cleavage reported for the variant G14U C66U is 0.4 or above.
satisfied

Check this variant for self-cleavage at or above 0.4: G11C G30U
not satisfied

Determine whether this variant has self-cleavage no lower than 0.4: G25U C39A
not satisfied

Decide: self-cleavage of C39A U46A >= 0.4?
satisfied

# check: self-cleavage of G30C G50U is greater than or equal to 0.4
satisfied

Decide: self-cleavage of C7A A10U >= 0.4?
satisfied

For this variant, is measured self-cleavage 0.4 or higher? G56A G68C
satisfied

Is the recorded value of self-cleavage equal to or greater than 0.4 for this variant? C63U G65A
satisfied

# bool: self-cleavage of G4U C66G >= 0.4
satisfied

Reported self-cleavage reaches at least 0.4 for G14C C34U ?
satisfied

Item C12G C39A with self-cleavage of 0.4 or above?
satisfied

Item G4C C33U with self-cleavage of 0.4 or above?
satisfied

# check: self-cleavage of A16C C32A is greater than or equal to 0.4
not satisfied

Would you say G2C C12A shows self-cleavage at minimum 0.4?
not satisfied

Could you tell me if the measured self-cleavage of G4U A59G reaches 0.4 or more?
satisfied

Check this variant for self-cleavage at or above 0.4: G31C G65C
not satisfied

Dear colleague, could you confirm whether U64G has self-cleavage at or above 0.4?
satisfied

Is the recorded value of self-cleavage equal to or greater than 0.4 for this variant? C34A U43C
satisfied

Could you please find out whether G31C U64G has self-cleavage that meets 0.4 or exceeds it?
not satisfied

Entry G17C G50C : is its self-cleavage no less than 0.4?
not satisfied

Quick check, self-cleavage >= 0.4? G41U G56U
not satisfied

Evaluate U62C G65A : self-cleavage at minimum 0.4?
satisfied

Please indicate if the recorded self-cleavage for G3C G5C meets or exceeds 0.4.
not satisfied

Item A16G G58A with self-cleavage of 0.4 or above?
satisfied

Hello, I need to know if G5U G11C has measured self-cleavage not below 0.4. Thanks!
not satisfied

Does G30U A42G have a reported self-cleavage of at least 0.4?
not satisfied

Kindly determine if self-cleavage recorded for U43A A59C is above or exactly 0.4.
satisfied

Check if self-cleavage >= 0.4 (inclusive). Item: G50A U61G
satisfied

Could you verify whether the entry U43C G68A shows self-cleavage of no less than 0.4?
satisfied

Determine whether this variant has self-cleavage no lower than 0.4: G5A G19U
not satisfied

Exam item: decide whether the reported self-cleavage for A15C U43G is at least 0.4.
satisfied

Textbook exercise: given the entry U43C C66A , state whether its self-cleavage is greater than or equal to 0.4.
satisfied

Does G4A C35U have a reported self-cleavage of at least 0.4?
not satisfied

Textbook exercise: given the entry A13C A15U , state whether its self-cleavage is greater than or equal to 0.4.
not satisfied

Exam item: decide whether the reported self-cleavage for C7A U53C is at least 0.4.
not satisfied

Could you tell me if the measured self-cleavage of G56A U61C reaches 0.4 or more?
satisfied

Is it the case that G2U C63A has self-cleavage reaching or exceeding 0.4?
not satisfied

Determine whether measured self-cleavage meets or exceeds 0.4 for G19C U46G
not satisfied

# check: self-cleavage of G1U G17C is greater than or equal to 0.4
not satisfied

Decide: self-cleavage of C9G G19C >= 0.4?
not satisfied

Does the reported self-cleavage for G28U U64C fall at or above the 0.4 mark?
not satisfied

Is reported self-cleavage greater than or equal to 0.4 here: C34U G41C
satisfied

Does self-cleavage meet or surpass 0.4 for A16G A52C ?
satisfied

API: above_or_equal(metric=self-cleavage, cutoff=0.4) for item C6A C7U
not satisfied

Does the variant G19A U43C have recorded self-cleavage that is 0.4 or more?
not satisfied

Exam item: decide whether the reported self-cleavage for A10G G25A is at least 0.4.
not satisfied

API: above_or_equal(metric=self-cleavage, cutoff=0.4) for item A15C G47C
satisfied

Kindly determine if self-cleavage recorded for G1A U62G is above or exactly 0.4.
not satisfied

Reported self-cleavage reaches at least 0.4 for U46A G56C ?
satisfied

Exam item: decide whether the reported self-cleavage for A52U G65C is at least 0.4.
satisfied

Dear colleague, could you confirm whether G4A A52G has self-cleavage at or above 0.4?
satisfied

Determine whether measured self-cleavage meets or exceeds 0.4 for G4U C27G
not satisfied

Check if self-cleavage >= 0.4 (inclusive). Item: C22U G28C
not satisfied

Identify whether the reported self-cleavage of the following variant is 0.4 or greater: A15C A23G
satisfied

Assess whether reported self-cleavage for G31U C57G sits at 0.4 or higher.
not satisfied

Please check the record G31C U69C and state if its self-cleavage is at or above 0.4.
satisfied

Is reported self-cleavage greater than or equal to 0.4 here: C32A G41C
not satisfied

Could you verify whether the entry U26G U55A shows self-cleavage of no less than 0.4?
satisfied

Please check the record G14U A60C and state if its self-cleavage is at or above 0.4.
not satisfied

Is the recorded value of self-cleavage equal to or greater than 0.4 for this variant? A23U A59C
satisfied

Is reported self-cleavage greater than or equal to 0.4 here: A23C U44G
satisfied

Would you say A10G C33G shows self-cleavage at minimum 0.4?
satisfied

Could you please find out whether C35G U46A has self-cleavage that meets 0.4 or exceeds it?
satisfied

Entry G4U G68A : is its self-cleavage no less than 0.4?
satisfied

Answer whether self-cleavage of A16G G47C is greater than or equal to 0.4.
satisfied

Could you please find out whether G1C U64G has self-cleavage that meets 0.4 or exceeds it?
not satisfied

Quick check, self-cleavage >= 0.4? C27U G41A
not satisfied

Record U53G G58A ; criterion: self-cleavage no lower than 0.4. Met?
satisfied

Kindly determine if self-cleavage recorded for C29G C39U is above or exactly 0.4.
not satisfied

Does U43G C66G have a reported self-cleavage of at least 0.4?
satisfied

Does the variant C12G U62C have recorded self-cleavage that is 0.4 or more?
satisfied

Please indicate if the recorded self-cleavage for C35U C66U meets or exceeds 0.4.
satisfied

Threshold query (self-cleavage >= 0.4) on C9U C45G
satisfied

In plain terms: is recorded self-cleavage at least 0.4 for C12U C63U ?
satisfied

Quick check: does G30A U38A have self-cleavage greater than or equal to 0.4?
satisfied
